B1: TPR t1 (parent)
chain: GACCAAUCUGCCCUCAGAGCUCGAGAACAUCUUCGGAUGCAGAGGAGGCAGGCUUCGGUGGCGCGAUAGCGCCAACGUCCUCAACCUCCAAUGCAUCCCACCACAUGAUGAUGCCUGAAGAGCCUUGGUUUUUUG

Variants of: B1
Test: polymerase ribozyme fitness, log enrichment relative to wild type (log ratio); higher = more active; in vitro selection for triplet polymerase activity
Experimental endpoint: polymerase ribozyme fitness (log ratio)

Some variants with known polymerase ribozyme fitness (log ratio) results, for comparison:
- GACCAAGCUGCCCUCAGAGCUCGAGAACAUCUUCGGAUGCAGAGGAGCCAGGCUUCGGUGGCGCGAUAGCGCCAACGUCCUCAACCUCAAAUGCAUCCCACCACAUGAUGAUGCCUGAAGAGCCUUGGUUUUUUG [U7G G48C C89A]: -2.97
- GACCUAUCUGCCCUCAGAGCUCGAGAACAUCUUCGGAUGCAGAGGAGGCAGGUUUCGGUGGCGCGAUAGCGCCAACGUCCUCAACCUCCAAAGCAUCCCACCACAUGAUGAUUCCUGAAGAGCCUUGGUUUUUUG [A5U C53U U92A G113U]: -4.65
- GACCAAUCUCCCCUCAGAGCUCGAGAACAUCUUCGGAUGCAGAGGAGGCAGGCUUCGGUGGCGCGAUAGCGCCAACGUCCUCAACCUCCAAUGCAUCCCACCACACCAUGAUGCCUGAAGAGCCUUGGUUUUUUG [G10C U106C G107C]: -5.64
- GACCAAUCUGCCCUCAGAGUUCGAGAACAUCUGCGGAUGCAGAGGAGGCAGGCUUCGGAGGCGCGAUAGCGCCAACGUCCUCAACCUCCAAUGCAUCCCACCACAUUAUCAUGCCUGAAGAGCCUUGGUUUUUUG [C20U U33G U59A G107U G110C]: -6.84
- GACCAAUCUGCCUUCAUAGCUCGAGAACAUUUUCGGAUGCAGAGGAGGCAGGCUUCGGUGGCGCGAUAGCGCCAACGUCCUCAACCUCCAAUGCAUCCCACCACAAGAUGAUGCUUGAAGAGCCUUGGUUUUUUG [C13U G17U C31U U106A C115U]: -1.65
- GACCAAUCUGCCCUCAGAGCUCGAGAACAUCUUCGGAUGCAGAGGAGGCAGGCUUCGGUGGCGCGAUAGUGCCAUCUUCCUCUACCUCCAAUGCAUCCCACCACAAGAUGAUGUCUGAAGAGGCUUGGUUUUGUG [C70U A75U G77U A83U U106A C114U C123G U133G]: -6.34

For GACCAAUCUGCGCUCAGAGCUCGAGAACAUCUUCGGAUGCAGAGGUGGCAGGCUUCGGUGGCGCGAUAGCGCCAACGUCCUGAACCUCCAAUGCAUCCCACCACAUGAUGAUGCCUGAAGAGCCUUGGUUUUUUG [C12G A46U C82G] , write its polymerase ribozyme fitness (log ratio).
-1.75

For GACCAAUCUGCCCUCAGGGCUCGAGAACAUCUUCGGAUGCAGAGGGGGCAGGCUUCGGUGGCGCGAUAGCGUCAACGUCCUCAACCUCCAAUGCAUCCCACCACAUGAUGAUGCCUGAAGAGCCUUGGUUUUUUG [A18G A46G C72U] , write its polymerase ribozyme fitness (log ratio).
-4.38

For GACCAAUCUGCCCUCAGAGCUCGAGAACAUCUUCGGAUGCAGAGGAGGCAGGCUUCGGUGGCGCGAUAGCGCCAACGUCCUCAUCCUCCAAUGCAUCCCACCACAUGAUGAUGUCUGAAGAGCCUUGGUUUUUUG [A84U C114U] , write its polymerase ribozyme fitness (log ratio).
-2.03

For GACCAAUCUGCCCUAAGAGCUCGAGAACAUCUUCGGAUACAGAGGAGGCAGGAUUCGGUGGCGCGAUAGCGCCAACGUCCUCAACCUCCAAUGCAUCCCACCACAUGAUGAUGCCUGAAGAGCCAUGGUUUUUUG [C15A G39A C53A U125A] , write its polymerase ribozyme fitness (log ratio).
-3.62

The origin of these recorded values is the RNAGym collection of RNA variant scans (doi:10.1073/pnas.2313332121).
